Test system: HepG2
Test: cells
Conditions: Homo sapiens, HepG2, 48 h
assayReadout: log10 of IC50 (log10 of the value in nM)
Field: value | Transform: log10 | Quantity: IC50 | Unit: nM

Data request, read-out log10 of IC50, for `COc1cc(C(=O)c2ccc(OC)c(OC)c2OC)cc([Se]C)c1OC`
3.64

Another: `COc1ccc(C(=O)c2cc(OC)c(OC)c([Se]C)c2)cc1Cl`
3.18

Another: `COc1cc(C(=O)c2cc(OC)c(OC)c([Se]C)c2)cc(OC)c1OC`
2.46

Another: `C=C(c1ccc(OC)c(OC)c1)c1cc(OC)c(OC)c([Se]C)c1`
2.67

Another: `C=C(c1ccc(OC)cc1)c1cc(OC)c(OC)c([Se]C)c1`
2.10

Another: `COc1ccc(C(=O)c2cc(OC)c(OC)c([Se]C)c2)cc1OC`
3.04

Another: `COc1ccc(C(=O)c2cc(OC)c(OC)c([Se]C)c2)cc1O`
1.49

Another: `C=C(c1ccc(OC)c(O)c1)c1cc(OC)c(OC)c(OC)c1`
1.26

Another: `C=C(c1cc(OC)c(OC)c(OC)c1)c1cc(OC)c(OC)c([Se]C)c1`
3.13

Another: `C=C(c1cc(OC)c(OC)c([Se]C)c1)c1ccc(OC)c(OC)c1OC`
3.80

Another: `COc1ccc(C(=O)c2cc(OC)c(OC)c([Se]C)c2)cc1C`
3.36

Another: `COc1ccc(C(=O)c2cc(OC)c(OC)c([Se]C)c2)cc1F`
1.67

Another: `C=C(c1ccc(OC)c(O)c1)c1cc(OC)c(OC)c([Se]C)c1`
0.48

Another: `COc1cc(C(=O)c2ccc([Se]C)cc2)cc(OC)c1OC`
1.89

Another: `C=C(c1ccc(OC)c(Cl)c1)c1cc(OC)c(OC)c([Se]C)c1`
2.47

Another: `C=C(c1ccc([Se]C)cc1)c1cc(OC)c(OC)c(OC)c1`
2.59

Another: `COc1ccc(C(=O)c2cc(OC)c(OC)c([Se]C)c2)cc1Br`
2.82

Another: `C=C(c1ccc(OC)c(Br)c1)c1cc(OC)c(OC)c([Se]C)c1`
2.84

Another: `COc1ccc(C(=O)c2cc(OC)c(OC)c(OC)c2)cc1O`
2.03

Another: `C=C(c1ccc(OC)c(F)c1)c1cc(OC)c(OC)c([Se]C)c1`
1.94

Another: `C=C(c1ccc(OC)c(C)c1)c1cc(OC)c(OC)c([Se]C)c1`
2.78

Another: `COc1ccc(C(=O)c2cc(OC)c(OC)c([Se]C)c2)cc1`
1.93

* * *

Tested on: A549
Experiment: cells
Settings: Homo sapiens, A549, 48 h
The label is true for IC50 below 100 nM and false for IC50 equal to or exceeding 100 nM.

Please let me know if `COc1ccc(C(=O)c2cc(OC)c(OC)c([Se]C)c2)cc1Br` shows IC50 below 100 nM.
false

Another: `C=C(c1cc(OC)c(OC)c([Se]C)c1)c1ccc(OC)c(OC)c1OC`
false

Another: `C=C(c1ccc(OC)c(F)c1)c1cc(OC)c(OC)c([Se]C)c1`
true

Another: `COc1cc(C(=O)c2ccc(OC)c(OC)c2OC)cc([Se]C)c1OC`
false

Another: `COc1cc(C(=O)c2ccc([Se]C)cc2)cc(OC)c1OC`
true

* * *

Assay: Metabolic stability in Sprague-Dawley rat liver microsomes assessed as compound remaining after 150 mins in presence of NADPH by UV-based HPLC-MS/MS analysis
Assay type: ADME, microsome
Conditions: Sprague-Dawley, liver microsomes, read-out: Stability
assayReadout: remaining at 2.5 h (%)
Could you give me the number in %? Just the number is fine.

Data request, read-out remaining at 2.5 h, for `C=C(c1ccc(OC)c(O)c1)c1cc(OC)c(OC)c(OC)c1`
34.3

Another: `C=C(c1ccc(OC)c(O)c1)c1cc(OC)c(OC)c([Se]C)c1`
25.8

* * *

Could you please report measured half-life for the items listed next?
Test: Half life in Sprague-Dawley rat by UV-based HPLC-MS/MS analysis
Assay type: ADME
Conditions: in vivo
Could you give me the number in h? Just the number is fine.

Data request, read-out half-life, for `C=C(c1ccc(OC)c(O)c1)c1cc(OC)c(OC)c(OC)c1`
1.7

Another: `C=C(c1ccc(OC)c(O)c1)c1cc(OC)c(OC)c([Se]C)c1`
1.24

* * *

Could you please report measured remaining at 1.5 h for the items listed next?
Assay: Metabolic stability in Sprague-Dawley rat liver microsomes assessed as compound remaining after 90 mins in presence of NADPH by UV-based HPLC-MS/MS analysis
Assay type: ADME, microsome
Details: read-out: Stability
Could you give me the number in %? Just the number is fine.

Data request, read-out remaining at 1.5 h, for `C=C(c1ccc(OC)c(O)c1)c1cc(OC)c(OC)c([Se]C)c1`
44.1

Another: `C=C(c1ccc(OC)c(O)c1)c1cc(OC)c(OC)c(OC)c1`
67.3

Another: `COc1ccc(/C=C\c2cc(OC)c(OC)c(OC)c2)cc1O`
22.5

* * *

Test system: A2780
Assay: cells
Details: Homo sapiens, A2780, 48 h
Description: Antiproliferative activity against human A2780 cells after 48 hrs by MTT assay
assayReadout: pIC50
In plain terms, pIC50 is the concentration in mol/L turned into minus its base-10 logarithm.

Data request, read-out pIC50, for `C=C(c1ccc(OC)c(O)c1)c1cc(OC)c(OC)c(OC)c1`
7.59

Another: `C=C(c1ccc(OC)c(O)c1)c1cc(OC)c(OC)c([Se]C)c1`
8.22
